# measurementProtocol: Single-ascending dose pharmacokinetic study: plasma THC after a 3 second inhalation from the vaporizer device
# Format: in vivo, human
# testContext: human, plasma, inhaled, 0.1 mg, Group IV, 25 ± 0.1 mg, single inhalation, plasma, mean ± SD; read-out: Δ^9-THC Cmax
readout: Cmax (ng/mL)
Write down the numeric answer in ng/mL and omit the unit.

Request: Cmax lookup needed for CCCCCc1cc(O)c2c(c1)OC(C)(C)[C@@H]1CCC(C)=C[C@@H]21 [THC, tetrahydrocannabinol] , thanks.
Response: 88.6

----------
# measurementProtocol: Single-ascending dose pharmacokinetic study: plasma THC after a 3 second inhalation from the vaporizer device
# Type: in vivo, human
# testContext: human, plasma, inhaled, Group III, 20 ± 0.1 mg, single inhalation, plasma, mean ± SD; read-out: Δ^9-THC Cmax
# Method: A study was conducted to investigate the pharmacokinetics, efficacy, safety, and ease of use of a vaporizer device of the present technology for treating disorders in humans. Volunteers were recruited for participation in the study and met the following inclusion criteria: (a) age >30 and <70 years; (b) no known medical problems; and (c) if applicable, negative urine pregnancy test (β human […] gonadotropin pregnancy test). […]
readout: Cmax (ng/mL)
Write down the numeric answer in ng/mL and omit the unit.

Request: Cmax lookup needed for CCCCCc1cc(O)c2c(c1)OC(C)(C)[C@@H]1CCC(C)=C[C@@H]21 [THC, tetrahydrocannabinol] , thanks.
Response: 72.4

----------
# measurementProtocol: Single-ascending dose pharmacokinetic study: plasma THC after a 3 second inhalation from the vaporizer device
# Type: in vivo, human
# testContext: human, plasma, inhaled, Group II, 15 ± 0.1 mg, single inhalation, plasma, mean ± SD; read-out: Δ^9-THC Cmax
readout: Cmax (ng/mL)
Write down the numeric answer in ng/mL and omit the unit.

Request: Cmax lookup needed for CCCCCc1cc(O)c2c(c1)OC(C)(C)[C@@H]1CCC(C)=C[C@@H]21 [THC, tetrahydrocannabinol] , thanks.
Response: 51.5

----------
# measurementProtocol: Single-ascending dose pharmacokinetic study: plasma THC after a 3 second inhalation from the vaporizer device
# Format: in vivo, human
# testContext: human, plasma, inhaled, Group I, 10 ± 0.1 mg, single inhalation, plasma, mean ± SD; read-out: Δ^9-THC Cmax
readout: Cmax (ng/mL)
Write down the numeric answer in ng/mL and omit the unit.

Request: Cmax lookup needed for CCCCCc1cc(O)c2c(c1)OC(C)(C)[C@@H]1CCC(C)=C[C@@H]21 [THC, tetrahydrocannabinol] , thanks.
Response: 35.4

----------
# measurementProtocol: Single-ascending dose pharmacokinetic study: plasma THC after a 3 second inhalation from the vaporizer device
# Assay type: in vivo, human
# testContext: human, plasma, inhaled, Group I, 10 ± 0.1 mg, single inhalation, mean ± SD
readout: Tmax (min)
Write down the numeric answer in min and omit the unit.

Request: Tmax lookup needed for CCCCCc1cc(O)c2c(c1)OC(C)(C)[C@@H]1CCC(C)=C[C@@H]21 [THC, tetrahydrocannabinol] , thanks.
Response: 3.67

Each recorded value in this set is attributed to patent US10721967B2.
